System: Escherichia coli TOP10;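 note: peptides expressed intracellularly from a pBAD plasmid library in pooled LB shake-flask culture, induced with 0.3% L-arabinose, DNA abundance read by NGS, three biological replicates, DESeq2 with apeglm shrinkage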
Test: shrunken log2 fold change of peptide-encoding DNA abundance (4.5 h post-induction vs induction); higher = less antimicrobial activity (less host growth inhibition)
Settings: time post-induction: 4.5 h; library: site-saturation at positions 5, 18, 19, 20
# Lookup of reported shrunken log2 fold change keyed by entry
Reply: number alone, nothing else.

Consider the reported shrunken log2 fold change for these sequences:
Enquiry: Please give the measured shrunken log2 fold change for this sequence: `RRIRERPPRLPRPRPRPYGDPRP`
Return: -0.218

Enquiry: Recorded shrunken log2 fold change of `RRIRRRPPRLPRPRPRPKIPPRP` , please.
Return: 0.0427

Enquiry: Could you share which shrunken log2 fold change value was measured for `RRIRHRPPRLPRPRPRPGFQPRP` ?
Return: -0.0167

Enquiry: Endpoint output: shrunken log2 fold change of `RRIRMRPPRLPRPRPRPVHVPRP` . Value?
Return: -0.0337

Enquiry: Need shrunken log2 fold change of `RRIRIRPPRLPRPRPRPYLFPRP` , thanks.
Return: -0.376

Enquiry: Which shrunken log2 fold change reading was recorded for the sequence `RRIRIRPPRLPRPRPRPLDPPRP` ?
Return: -0.0309

Enquiry: State the recorded shrunken log2 fold change for this entry: `RRIRVRPPRLPRPRPRPHRAPRP`
Return: 0.101

Enquiry: Return reported shrunken log2 fold change; argument: `RRIRSRPPRLPRPRPRPDKEPRP`
Return: 0.0247

Enquiry: Field request: shrunken log2 fold change | item: `RRIRERPPRLPRPRPRPCMLPRP`
Return: -0.241

Enquiry: Would you mind telling me what shrunken log2 fold change value was observed for `RRIRHRPPRLPRPRPRPGFCPRP` ?
Return: -0.0484

Further cases:
Enquiry: I have this sequence here, `RRIRYRPPRLPRPRPRPPREPRP` , and I need its recorded shrunken log2 fold change.
Return: -0.0166

Source of measurements: the supplement of paper PMC9112550
